# Tested on: Mast/stem cell growth factor receptor Kit (Homo sapiens), P10721 [V560G]
# Sequence (P10721 whole entry V560G): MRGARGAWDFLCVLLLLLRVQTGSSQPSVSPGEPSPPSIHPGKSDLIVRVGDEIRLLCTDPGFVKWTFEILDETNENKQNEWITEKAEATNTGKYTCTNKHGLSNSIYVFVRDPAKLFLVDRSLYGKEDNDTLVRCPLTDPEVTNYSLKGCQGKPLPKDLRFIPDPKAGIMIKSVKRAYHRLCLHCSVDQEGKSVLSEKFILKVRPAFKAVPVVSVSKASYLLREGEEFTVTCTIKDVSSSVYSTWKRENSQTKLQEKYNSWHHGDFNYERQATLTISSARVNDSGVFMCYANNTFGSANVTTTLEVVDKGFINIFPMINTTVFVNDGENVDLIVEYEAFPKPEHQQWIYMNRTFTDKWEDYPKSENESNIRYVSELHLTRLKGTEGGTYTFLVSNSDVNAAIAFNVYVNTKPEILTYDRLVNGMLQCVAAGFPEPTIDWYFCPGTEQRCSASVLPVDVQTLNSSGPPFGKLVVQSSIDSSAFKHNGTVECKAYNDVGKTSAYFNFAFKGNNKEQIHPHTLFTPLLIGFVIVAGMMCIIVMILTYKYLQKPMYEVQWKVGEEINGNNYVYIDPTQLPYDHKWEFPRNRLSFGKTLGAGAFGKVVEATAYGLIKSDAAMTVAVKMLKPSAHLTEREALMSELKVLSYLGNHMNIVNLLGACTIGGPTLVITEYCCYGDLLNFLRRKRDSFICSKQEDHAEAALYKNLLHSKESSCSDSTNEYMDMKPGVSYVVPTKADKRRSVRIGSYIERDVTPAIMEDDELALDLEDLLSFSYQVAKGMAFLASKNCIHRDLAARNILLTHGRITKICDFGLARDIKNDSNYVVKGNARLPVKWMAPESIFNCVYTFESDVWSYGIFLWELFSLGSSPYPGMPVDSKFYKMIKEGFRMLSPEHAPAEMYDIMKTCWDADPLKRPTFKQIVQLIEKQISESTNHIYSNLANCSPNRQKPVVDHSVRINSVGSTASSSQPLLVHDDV
# CONDITION_CONTEXT: at 1 µM
What inhibition was measured for each of the following?
One number for each entry, in %.

Worked examples follow.
CCn1c(-c2nonc2N)nc2c(C#CC(C)(C)O)ncc(OCC3CCNCC3)c21 = 3.26
CCn1c(-c2nonc2N)nc2c(C#CC(C)(C)O)nc(O[C@@H](CN)c3ccccc3)cc21 = 3.54
Nc1nonc1-c1nc2cnccc2n1C1CCCCC1 = 3.23
NS(=O)(=O)c1ccc(-c2ccc3c(NC(=O)C4CC4)n[nH]c3c2)cc1 = -1.99
CCn1c(-c2nonc2N)nc2c(C#CCN)ncc(OCCCN)c21 = 2.93
CCn1c(-c2nonc2N)nc2c(C#CC(C)(C)O)ncc(OC[C@@H]3CCCN3)c21 = -1.89

# context switch: different compound, same inhibition
QUERY: Which inhibition value is on record for Cc1cc(-c2ccco2)cc(C)c1/C=C/c1cncc(-c2nn[nH]n2)c1 ?
RESULT: 3.87
